- Tested on: STAT1
- Assay explanation: IFN-γ-induced STAT1 pathway activation assay
- Type: cell-based
- Run parameters: read-out: STAT1 IC50
Experimental readout: IC50

Known results for compounds:
CC1Sc2nnc(-c3[nH]nc4c3CCC4)n2N=C1c1ccc(Cl)c(Cl)c1 (centres unmarked) [Compound 17]    > 50 µM
COc1ccc(C2=Nn3c(nnc3-c3[nH]nc4c3CCC4)SC2C)cc1 (centres unmarked) [Compound 18]    > 50 µM
c1ccc(-c2cc(-c3nnc4n3N=C(C3CCCCC3)CS4)[nH]n2)cc1 [Compound 11b]    > 50 µM
CC(C)C1Sc2nnc(-c3[nH]nc4c3CCC4)n2N=C1c1ccc(Cl)c(Cl)c1 (centres unmarked) [Compound 23]    > 50 µM

For the next question, use this compound.
(Q) Given the entry Clc1cccc(C2=Nn3c(nnc3-c3[nH]nc4c3CCC4)SC2)c1 [Compound 4a] , report its measured IC50.
(A) > 50 µM
